target: mouse ACVR2A (mouse, UniProt P27038 20-135, limits assumed); experiment: ELISA; also: test concentration or dose not given here
Sequence (P27038 20-135 limits assumed): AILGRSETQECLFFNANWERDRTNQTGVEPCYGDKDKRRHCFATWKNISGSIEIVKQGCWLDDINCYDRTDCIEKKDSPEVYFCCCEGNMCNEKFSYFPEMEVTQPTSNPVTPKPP
Property: optical density (OD)
Please respond with the number in OD and leave the unit unwritten.

Field: example entries. Status: answers known.
366_G02 (antibody, V domains shown, Group II) VH: EVQLLESGGGLVQPGGSLRLSCAASGFTFDSYGMHWVRQAPGKGLEWVSSINYNGGYTSYADSVKGRFTISRDNSKNTLYLQMNSLRAEDTAVYYCARAATWHDTHLDYWGQGTLVTVSS VL: DIQMTQSPSSLSASVGDRVTITCRASQSILTYLNWYQQKPGKAPKLLIYAATSRHSGVPSRFSGSGSGTDFTLTISSLQPEDFATYYCQQSDDNPLTFGGGTKVEIK: 2.32
369_C09 (antibody, V domains shown, Group II) VH: EVQLLESGGGLVQPGGSLRLSCAASGFTFSSYGMHWVRQAPGKGLEWVSSINYNGGYTGYADSVKGRFTISRDNSKNTLYLQMNSLRAEDTAVYYCARAATWHDTHLDYWGQGTLVTVSS VL: DIQMTQSPSSLSASVGDRVTITCRASQSIVSYLNWYQQKPGKAPKLVIYAATSRHSGVPSRFSGSGSGTDFTLTISSLQPEDFATYYCQQSYDLPLTFGGGTKVEIK: 3.05
371_A04 (antibody, V domains shown, Group I) VH: EVQLLESGGGLVQPGGSLRLSCAASGFTFDSYGMNWVRQAPGKGLEWVSSINYNSGYTGYADSVKGRFTISRDNSKNTLYLQMNSLRAEDTAVYYCARAANWHDTALDYWGQGTLVTVSS VL: DIQMTQSPSSLSASVGDRVTITCRASQSILTYLNWYQQKPGKAPKLLIYAVTSRASGVPSRFSGSGSGTDFTLTISSLQPEDFATYYCQQSYDTPLTFGGGTKVEIK: 1.17
368_E05 (antibody, V domains shown, Group II) VH: EVQLLESGGGLVQPGGSLRLSCAASGFTFDSYSMHWVRQAPGKGLEWVSSINYNGGYKSYADSVKGRFTISRDNSKNTLYLQMNSLRAEDTAVYYCARAATWHDTHLDYWGQGTLVTVSS VL: DIQMTQSPSSLSASVGDRVTITCRASQSILSYLNWYQQKPGKAPKLVIYAATSRASGVPSRFSGSGSGTDFTLTISSLQPEDFATYYCQQSYSSPLTFGGGTKVEIK: 2.07

Continue with the next binder.
Q: Form field: reported optical density of 368_F10 (antibody, V domains shown, Group I) VH: EVQLLESGGGLVQPGGSLRLSCAASGFTFSSYGMNWVRQAPGKGLEWVAGINYNSGYTSYADSVKGRFTISRDNSKNTLYLQMNSLRAEDTAVYYCARAANWHDTHLDYWGQGTLVTVSS VL: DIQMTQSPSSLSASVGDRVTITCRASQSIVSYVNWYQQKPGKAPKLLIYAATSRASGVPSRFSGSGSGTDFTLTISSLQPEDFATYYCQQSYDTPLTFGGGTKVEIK
A: 2.6
